System: L1210 VCR
Assay: XTT proliferation test, vincristine-resistant L1210
Format: cell-based
Conditions: Mus musculus, vincristine-resistant cell line L1210 (leukaemia)
ENDPOINT_LABEL: pEC50
One number for each entry, as −log10 of the molar value.

Worked set:
CCNC(=S)Nc1cnc2ccc(-c3cc(C)c(O)c(C)c3)cc2n1	7.72
Cc1cc(-c2ccc3ncc(NC(=S)NC4CC4)nc3c2)cc(C)c1O	8.40

Next item in the queue.
Task item: Query (compound): `Cc1cc(-c2ccc3ncc(NC(=O)NC(C)C)nc3c2)cc(C)c1O` ; field requested: pEC50
Reply: 8.40

---

Test system: L363
Assay: Proliferation assay (Alamar Blue / XTT), L363
Type: cell-based
Conditions: Homo sapiens, L-363; cell line L363 (leukaemia)
ENDPOINT_LABEL: pEC50
Numbers only, as −log10 of the molar value.

Task item: Reported pEC50 for L363, given Cc1cc(-c2ccc3ncc(NC(=O)NC(C)C)nc3c2)cc(C)c1O [Compound 17] ?
Reply: 7.11

---

ENDPOINT_LABEL: melting point

Oc1c(Cl)cc(-c2ccc3ncc(NC(=S)NC4CCCCCC4)nc3c2)cc1Cl [Compound 92]	281 to 283 °C
CCCNC(=O)Nc1cnc2ccc(-c3cc(Cl)c(O)c(Cl)c3)cc2n1 [Compound 73]	295 to 296 °C
Cc1cc(-c2ccc3ncc(NC(=O)NCC(C)(C)C)nc3c2)cc(C)c1O [Compound 67]	275 to 276 °C
CC(C)NC(=O)Nc1cnc2ccc(-c3cnn(C)c3)cc2n1 [Compound 70]	260 to 263 °C

Next item in the queue.
Task item: Query (molecule): CCCCNC(=O)Nc1cnc2ccc(-c3cc(C)c(O)c(C)c3)cc2n1 [Compound 18] ; field requested: melting point
Reply: 276 to 280 °C

---

System: NCI H69 AR
Experiment: XTT proliferation test, multi-drug-resistant NCI H69 AR
Type: cell-based
Conditions: Homo sapiens, NCI-H69AR, multi-drug-resistant cell line NCIH69 AR (lung)
Description: For further characterization, the substances according to the invention were examined in resistant tumour cell lines compared to non-resistant wild-type tumour cell lines. […]
ENDPOINT_LABEL: EC50 (nM)
One number for each entry, in nM.

CCNC(=S)Nc1cnc2ccc(-c3cc(C)c(O)c(C)c3)cc2n1 [Compound 22]	8
Cc1cc(-c2ccc3ncc(NC(=S)NC4CC4)nc3c2)cc(C)c1O [Compound 23]	0.8

Task item: Query (compound): Cc1cc(-c2ccc3ncc(NC(=O)NC(C)C)nc3c2)cc(C)c1O [Compound 17] ; field requested: EC50
Reply: 86

---

System: PC-3
Assay: Proliferation assay (Alamar Blue / XTT), PC-3
Format: cell-based
Conditions: Homo sapiens, cell line PC3 (prostate)
Could you please report measured EC50 for the items listed next?

Oc1c(Cl)cc(-c2ccc3ncc(NC(=S)NC4CCC4)nc3c2)cc1Cl	1190 nM
CCCNC(=O)Nc1cnc2ccc(-c3cc(Cl)c(O)c(Cl)c3)cc2n1	1180 nM
O=C(NCCc1ccccc1)Nc1cnc2ccc(-c3cc(Cl)c(O)c(Cl)c3)cc2n1	1260 nM
Oc1c(Cl)cc(-c2ccc3ncc(NC(=S)NC4CCCCCCC4)nc3c2)cc1Cl	334 nM
Oc1c(Cl)cc(-c2ccc3ncc(NC(=S)NC4CC4)nc3c2)cc1Cl	955 nM

Hi, could you look up EC50 for each item in my list?
1. Cc1cc(-c2ccc3ncc(NC(=S)NC4CC4)nc3c2)cc(C)c1O
2. CCNC(=S)Nc1cnc2ccc(-c3cc(C)c(O)c(C)c3)cc2n1
3. O=C(Nc1cnc2ccc(-c3cc(Cl)c(O)c(Cl)c3)cc2n1)NC1CCCCCCC1
4. CC(C)NC(=O)Nc1cnc2ccc(-c3cnn(C)c3)cc2n1
5. CCNC(=O)Nc1cnc2ccc(-c3cc(Cl)c(O)c(Cl)c3)cc2n1
6. C=CCNC(=O)Nc1cnc2ccc(-c3cc(C)c(O)c(C)c3)cc2n1

Reply:
["3 nM", "11 nM", "300 nM", "601 nM", "2200 nM", "76 nM"]
